Molecular target: UniProtKB Q16584
Sequence (Q16584 whole entry, looked up): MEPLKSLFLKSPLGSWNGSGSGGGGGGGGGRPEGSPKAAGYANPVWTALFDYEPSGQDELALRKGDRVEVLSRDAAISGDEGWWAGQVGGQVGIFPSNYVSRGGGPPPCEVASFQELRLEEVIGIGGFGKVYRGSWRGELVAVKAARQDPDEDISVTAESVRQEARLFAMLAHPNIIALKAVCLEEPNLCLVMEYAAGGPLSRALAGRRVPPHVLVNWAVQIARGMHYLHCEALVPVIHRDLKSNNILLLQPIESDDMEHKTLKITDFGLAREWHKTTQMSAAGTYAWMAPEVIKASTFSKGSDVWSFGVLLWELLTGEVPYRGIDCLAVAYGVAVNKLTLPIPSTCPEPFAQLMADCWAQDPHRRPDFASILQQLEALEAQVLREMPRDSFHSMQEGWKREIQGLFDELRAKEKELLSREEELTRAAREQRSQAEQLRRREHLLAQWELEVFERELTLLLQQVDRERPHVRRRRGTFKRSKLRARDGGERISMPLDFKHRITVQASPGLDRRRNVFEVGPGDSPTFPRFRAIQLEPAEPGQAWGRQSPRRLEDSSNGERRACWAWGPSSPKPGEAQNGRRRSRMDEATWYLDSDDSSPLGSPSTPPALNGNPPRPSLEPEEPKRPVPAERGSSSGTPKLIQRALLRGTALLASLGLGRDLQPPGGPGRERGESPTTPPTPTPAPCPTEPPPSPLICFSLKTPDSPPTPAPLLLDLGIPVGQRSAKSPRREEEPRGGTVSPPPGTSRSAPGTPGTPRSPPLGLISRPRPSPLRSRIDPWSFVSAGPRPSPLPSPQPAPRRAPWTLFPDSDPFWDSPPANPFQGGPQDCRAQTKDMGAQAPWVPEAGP
Experiment: Evaluation of inhibitory activity of enzyme units, MLK3 ([γ-33P]-ATP filter assay)
Consider the following compounds; for each one, report its IC50.
Give bare numbers, in nM.

Completed entries (count: 4):
CCS(=O)(=O)N1CC[C@H](Nc2c(Br)cnc3[nH]c(-c4cc(C)n(-c5ccc(N6CCOCC6)cc5)c4C)nc23)C1
4
CCS(=O)(=O)N1CC[C@H](Nc2c(Br)cnc3[nH]c(-c4cc(C)n(-c5cc(S(N)(=O)=O)ccc5Cl)c4C)nc23)C1
12
Cc1cc(-c2nc3c(Nc4cccc(S(N)(=O)=O)c4)c(Br)cnc3[nH]2)c(C)n1-c1cc(Cl)ccc1Cl
46
CCS(=O)(=O)N1CC[C@H](Nc2c(Br)cnc3[nH]c(-c4cc(C)n(-c5ccccc5Cl)c4C)nc23)C1
11

Please look at the following compound next.
Task item: Give the measured IC50 of `CCS(=O)(=O)N1CC[C@H](Nc2c(Br)cnc3[nH]c(-c4cc(C)n(-c5cc(Cl)ccc5Cl)c4C)nc23)C1` .
Reply: 17
